The measurements presented in this section are drawn from PubChem BioAssay (NCI).

Tested on: UACC-257 melanoma
Returns: one label drawn from yes (active), no (inactive)

Worked examples follow.
                                   molecule  category_label
0  COc1ccc(-c2cnc3ccnn3c2-c2cc(OC)c(OC)c(OC)c2)cc1              no
1                     N.N.N.N.N.N.[I-].[Os]              no
2  COc1ccc(/C=C2\CN(Cc3cn(CCCNc4ccnc5cc(Cl)ccc45)nn3)C/C(=C\c3ccc(OC)c(OC)c3)C2=O)cc1OC              no
3  CN(C)CCCN(c1nc(C(Cl)(Cl)Cl)ns1)c1nc(C(Cl)(Cl)Cl)ns1              no

Look up the recorded call for CCN(CC)CCOc1ccc(/C(=C(\C)Cc2ccc(OC)cc2)c2ccc(OC(=O)NCc3ccccc3)cc2)cc1 in this test.
no

Look up the recorded call for CCCCCCCC/C=C/CCCCCCCC1=NC(C)(C)CN1C(C)C in this test.
no

Look up the recorded call for Cc1cccc2c(N=Nc3ccc(S(N)(=O)=O)cc3)c(O)[nH]c12 in this test.
no

Look up the recorded call for NC1=C(Cl)C(=O)c2ccc(S(N)(=O)=O)cc2C1=O in this test.
yes

Look up the recorded call for O=C(O)c1ccc2c(c1Nc1ccccc1)C(=O)c1ccccc1C2=O in this test.
no

Look up the recorded call for Cc1cc(N2CCCCCC2)nc(NC2CCCC(Nc3ccnc4cc(Cl)ccc34)C2)n1 (centres undefined) in this test.
no

Look up the recorded call for c1cc(OCCN2CCCCCC2)ccc1CNc1ccc2nc(CCC3CCCCC3)[nH]c2c1 in this test.
no

Look up the recorded call for CN1CCC[C@@H]1CCO[C@](C)(c1ccccc1)c1ccc(Cl)cc1 in this test.
no

Look up the recorded call for CCCc1cc2cc(-n3nc(C)c4c3CC(C)(C)CC4=O)cc(NC3CCC(O)CC3)c2c(=O)[nH]1 (centres undefined) in this test.
yes

Look up the recorded call for COc1cc(/C=C/C(=O)c2ccc(Nc3ncnc4ccccc34)cc2)cc(OC)c1 in this test.
no
